# Experiment: In vivo assay of body temperature increase (rectal body temperature)
# Parameters: species or system rat
# Condition Label: rats, oral, 10 mL/kg of 1 mg/mL in 0.5% methylcellulose; greatest ΔTb versus vehicle control at 0.5, 1 or 2 hrs
Give True when the value for ΔTb, body temperature increase is at least 0.5 °C. Give False when it is less.

## Input Has "C[C@@H]1CN(c2ncc([C@H](O)CO)cc2F)CCN1C(=O)Nc1nc2ccc(F)cc2s1" a recorded ΔTb, body temperature increase greater than or equal to 0.5 °C?
## Output True

## Input Can you check "Cc1cc([C@H](O)CO)cnc1N1CCN(C(=O)Nc2nc3ccc(Cl)cc3s2)CC1" next?
## Output True

## Input What do you have for "C[C@@H]1CN(C(=O)Nc2nc3ccc(F)cc3s2)CCN1c1ncc([C@H](O)CO)cc1F" ?
## Output False

## Input What do you have for "C[C@@H]1CN(c2ncc([C@H](O)CO)cc2C(F)(F)F)CCN1C(=O)Nc1nc2ccccc2s1" ?
## Output True

## Input Same again, this time with "Cc1ccc2nc(NC(=O)N3CCN(c4ncc([C@H](O)CO)cc4Cl)CC3)sc2c1"
## Output True

* * *

# Target Or Test System: human TRPV1 (Homo sapiens (Human))
# Experiment: Capsaicin-based assay, Protocol 2, TRPV1/CHO cells (hCAP-CHO), Fluo-4 FLIPR
# Type: cell-based
# Condition Label: 100 nM capsaicin, mean ± SEM
Measured Parameter: pIC50
pIC50 field: float, defined as -log10 of concentration (mol/L).

## Input Would you mind telling me what pIC50 value was observed for C[C@@H]1CN(C(=O)Nc2nc3cc(F)c(F)cc3s2)CCN1c1ncc([C@@H](O)[C@@H](C)O)cc1F [B158(o)] ?
## Output 6.84

## Input Then what about the compound C[C@H](O)[C@@H](O)c1cnc(N2CCN(C(=O)Nc3nc4ccc(F)cc4s3)C[C@H]2C)c(F)c1 [B125(j)] ?
## Output 6.71

## Input Let us now turn to C[C@H](O)[C@@H](O)c1cnc(N2CCN(C(=O)Nc3nc4ccc(F)cc4s3)[C@@H](C)C2)c(F)c1 [BB]
## Output 7.20

## Input C[C@H]1CN(c2ncc([C@@H](O)CO)cc2F)CCN1C(=O)Nc1nc2cc(F)ccc2s1 [A155(d)] , same question.
## Output 6.77

## Input Now the same for Cc1cc2nc(NC(=O)N3CCN(c4ncc([C@H](O)[C@H](C)O)cc4F)CC3)sc2cc1C [C170(r)]
## Output 7.05

## Input Likewise for C[C@H]1CN(c2ncc([C@H](O)CO)cc2F)CCN1C(=O)Nc1nc2cc(F)ccc2s1 [A155(a)] ?
## Output 7.02

## Input Now consider C[C@H](O)[C@@H](O)c1cnc(N2CCN(C(=O)Nc3nc4cc(F)c(F)cc4s3)C[C@H]2C)c(F)c1 [B158(j)] and answer again.
## Output 7.31

## Input Try this compound next: C[C@@H]1CN(C(=O)Nc2nc3ccccc3s2)CCN1c1ncc([C@@H](O)[C@@H](C)O)cc1F [B122(o)]
## Output 6.70

## Input Same for C[C@H]1CN(c2ncc([C@H](O)CO)cc2F)CCN1C(=O)Nc1nc2ccccc2s1 [A122(a)]
## Output 6.75

## Input Another compound to check: C[C@@H]1CN(C(=O)Nc2nc3cc(F)ccc3s2)CCN1c1ncc([C@@H](O)[C@@H](C)O)cc1F [B155(o)]
## Output 6.60

## Input Also, C[C@H](O)[C@@H](O)c1cnc(N2CCN(C(=O)Nc3nc4ccc(F)cc4s3)CC2)c(Cl)c1 [C4(r)] please.
## Output 7.37

## Input Do the same for C[C@H]1CN(C(=O)Nc2nc3ccccc3s2)CCN1c1ncc([C@H](O)CO)cc1F [A122(c)] please
## Output 6.75

## Input Record: C[C@@H]1CN(c2ncc([C@@H](O)CO)cc2F)CCN1C(=O)Nc1nc2ccc(F)cc2s1 [A125(e)]
## Output 7.62

## Input Consider next the compound C[C@@H](O)[C@H](O)c1cnc(N2CCN(C(=O)Nc3nc4ccccc4s3)C[C@@H]2C)c(F)c1 [B122(p)] in the same way.
## Output 6.30

## Input And for C[C@H](O)[C@@H](O)c1cnc(N2CCN(C(=O)Nc3nc4cc(F)ccc4s3)C[C@H]2C)c(F)c1 [B155(j)] ?
## Output 6.46

## Input Another compound to check: Cc1ccc2nc(NC(=O)N3CCN(c4ncc([C@H](O)CO)cc4F)C[C@@H]3C)sc2c1 [A126(a)]
## Output 7.40

* * *

# Target Or Test System: human TRPV1 (Homo sapiens (Human), UniProt Q8NER1)
# Sequence (Q8NER1 whole entry, looked up): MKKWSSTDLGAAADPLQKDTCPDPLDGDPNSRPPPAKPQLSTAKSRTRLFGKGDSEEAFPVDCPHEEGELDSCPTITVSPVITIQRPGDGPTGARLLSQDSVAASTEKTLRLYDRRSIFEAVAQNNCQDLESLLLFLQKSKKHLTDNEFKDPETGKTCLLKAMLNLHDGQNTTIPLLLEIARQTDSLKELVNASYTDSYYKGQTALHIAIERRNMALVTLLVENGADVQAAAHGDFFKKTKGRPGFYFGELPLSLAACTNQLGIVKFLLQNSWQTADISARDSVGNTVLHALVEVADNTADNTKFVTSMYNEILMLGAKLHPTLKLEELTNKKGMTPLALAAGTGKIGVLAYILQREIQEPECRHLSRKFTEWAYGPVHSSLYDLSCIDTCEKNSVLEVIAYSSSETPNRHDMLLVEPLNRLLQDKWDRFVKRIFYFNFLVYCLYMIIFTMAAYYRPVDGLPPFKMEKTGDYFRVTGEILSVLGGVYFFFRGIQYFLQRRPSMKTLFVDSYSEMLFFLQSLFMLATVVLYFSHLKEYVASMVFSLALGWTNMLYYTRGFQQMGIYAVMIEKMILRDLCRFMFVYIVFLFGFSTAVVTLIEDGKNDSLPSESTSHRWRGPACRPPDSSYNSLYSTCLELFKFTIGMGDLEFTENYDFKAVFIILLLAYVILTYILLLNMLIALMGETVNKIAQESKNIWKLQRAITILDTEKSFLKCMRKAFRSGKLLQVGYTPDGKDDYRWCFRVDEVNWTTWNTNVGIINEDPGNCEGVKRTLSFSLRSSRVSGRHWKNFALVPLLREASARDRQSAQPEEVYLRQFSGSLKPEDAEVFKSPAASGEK
# Experiment: pH-based assay, Protocol 2, TRPV1/CHO cells (hpH-CHO), Fura-2 Ca2+ influx
# Type: cell-based
# Condition Label: pH 5.0-5.1 (H2SO4), mean ± SEM
Measured Parameter: pIC50
Value format note: pIC50 is -log10 of concentration (mol/L); just state the number.

## Input Look up pIC50 for this compound: "Cc1ccc2nc(NC(=O)N3CCN(c4ncc([C@H](O)CO)cc4F)C[C@@H]3C)sc2c1"
## Output 7.91

## Input How about C[C@H](O)[C@@H](O)c1cnc(N2CCN(C(=O)Nc3nc4ccc(F)cc4s3)CC2)c(Cl)c1 [C4(r)] ?
## Output 7.76

## Input Can you handle "C[C@H](O)[C@@H](O)c1cnc(N2CCN(C(=O)Nc3nc4cc(F)ccc4s3)C[C@H]2C)c(F)c1" next?
## Output 6.36

## Input Can you handle "C[C@H](O)[C@@H](O)c1cnc(N2CCN(C(=O)Nc3nc4cc(F)c(F)cc4s3)C[C@H]2C)c(F)c1" next?
## Output 6.87

## Input Another: C[C@H](O)[C@@H](O)c1cnc(N2CCN(C(=O)Nc3nc4ccc(F)cc4s3)CC2)c(F)c1 [C125(r)]
## Output 7.16

## Input Another compound to check: C[C@H](O)[C@@H](O)c1cnc(N2CCN(C(=O)Nc3nc4ccc(Cl)cc4s3)CC2)c(F)c1 [C123(r)]
## Output 7.69

## Input Try the compound Cc1ccc2nc(NC(=O)N3CCN(c4ncc([C@H](O)[C@H](C)O)cc4F)CC3)sc2c1 [C126(r)]
## Output 7.17

## Input Another compound to look at: "C[C@@H]1CN(C(=O)Nc2nc3ccccc3s2)CCN1c1ncc([C@H](O)CO)cc1F"
## Output 6.17

## Input Can you handle C[C@@H]1CN(c2ncc([C@@H](O)CO)cc2F)CCN1C(=O)Nc1nc2ccc(Cl)cc2s1 [A123(e)] next?
## Output 9.40

## Input "C[C@H](O)[C@@H](O)c1cnc(N2CCN(C(=O)Nc3nc4ccccc4s3)C[C@@H]2C)c(F)c1" ?
## Output 5.69

## Input # repeat for Cc1cc2nc(NC(=O)N3CCN(c4ncc([C@H](O)[C@H](C)O)cc4F)CC3)sc2cc1C [C170(r)]
## Output 7.48

## Input Now the compound "C[C@@H]1CN(C(=O)Nc2nc3cc(F)ccc3s2)CCN1c1ncc([C@H](O)CO)cc1F"
## Output 6.87

## Input Same for "C[C@H]1CN(C(=O)Nc2nc3ccccc3s2)CCN1c1ncc([C@H](O)CO)cc1F"
## Output 6.26

## Input Would you mind doing "C[C@H](O)[C@@H](O)c1cnc(N2CCN(C(=O)Nc3nc4ccccc4s3)C[C@H]2C)c(F)c1" as well?
## Output 5.76

## Input Please do the same for "C[C@@H]1CN(C(=O)Nc2nc3ccc(F)cc3s2)CCN1c1ncc([C@@H](O)[C@@H](C)O)cc1F" as well.
## Output 6.40

## Input Queued: "C[C@H]1CN(c2ncc([C@H](O)CO)cc2F)CCN1C(=O)Nc1nc2ccccc2s1"
## Output 7.01

* * *

Could you please report measured IC50 for the items listed next?
# Target Or Test System: human TRPV1 (Homo sapiens (Human), UniProt Q8NER1)
# Experiment: pH-based assay, Protocol 2, TRPV1/CHO cells (hpH-CHO), Fura-2 Ca2+ influx
# Type: cell-based
# Condition Label: pH 5.0-5.1 (H2SO4), mean ± SEM
Your reply should be a number followed by the unit it is expressed in.

## Input Lab request: please report IC50 under test system human TRPV1 (Homo sapiens (Human), UniProt Q8NER1) for C[C@@H]1CN(C(=O)Nc2nc3ccc(F)cc3s2)CCN1c1ncc([C@H](O)CO)cc1F [A125(b)]
## Output 81 nM

## Input How about C[C@@H]1CN(c2ncc([C@@H](O)CO)cc2F)CCN1C(=O)Nc1nc2ccccc2s1 [A122(e)] ?
## Output 5.8 nM

## Input Check C[C@@H]1CN(c2ncc([C@@H](O)CO)cc2F)CCN1C(=O)Nc1nc2ccc(F)cc2s1 [A125(e)] too.
## Output 0.6 nM

## Input Now try C[C@@H]1CN(C(=O)Nc2nc3ccccc3s2)CCN1c1ncc([C@@H](O)[C@@H](C)O)cc1F [B122(o)] .
## Output 6880 nM
